Target Desc: 5-HT1A receptor (Sus scrofa)
Construct: Swine hippocampus was homogenized in a 50 mM Tris-Hcl buffer; from tissue; host or cells: swine hippocampus, membrane fraction
Assay Info: Affinity for serotonin 1A receptor: inhibition of [3H]MPPF binding in swine hippocampal membrane fraction
Experimental Conditions: low affinity IC50 divided by high affinity IC50; 1 or smaller = no intrinsic activity, 2 or greater = intrinsic activity
Recorded L/H ratio, one value per entry.
Measurement Kind: L/H ratio

1) COc1ccc2c(=O)ccoc2c1CCN1CCC(n2ccc3ccc(C(N)=O)cc32)CC1 [Compound 35]
0.9
2) COc1ccc2c(c1CCN1CCC(n3ccc4ccc(C(N)=O)cc43)CC1)OC1(CCCC1)CC2=O [Compound 41]
0.7
3) CNC(=O)c1ccc2ccn(C3CCN(CCc4c(OC)ccc5c4OC(C)(C)CC5O)CC3)c2c1 (stereo not shown) [Compound 48]
0.9
4) COCC1(C)CC(=O)c2ccc(OC)c(CCN3CCC(n4ccc5ccc(C(N)=O)cc54)CC3)c2O1 (stereo not shown) [Compound 40]
0.9
5) COc1cc2c(cc1CCN1CCC(n3ccc4ccc(C(N)=O)cc43)CC1)C(=O)N(C)CC2 [Compound 33]
0.7
6) COc1cc2onc(C)c2cc1CCN1CCC(n2ccc3ccc(C(N)=O)cc32)CC1 [Compound 2]
1.3
7) COc1cc2c(cc1CCN1CCC(n3ccc4ccc(C(N)=O)cc43)CC1)C(=O)CC2 [Compound 26]
1.3
8) COc1cc2c(cc1CCN1CCC(n3ccc4ccc(C(N)=O)cc43)CC1)C(O)CC2 (stereo not shown) [Compound 50]
1
9) COc1cc2c(cc1CCN1CCC(n3ccc4ccc(C(N)=O)cc43)CC1)N(C)C(=O)CC2 [Compound 57]
1.3
10) CCn1c(=O)oc2cc(OC)c(CCN3CCC(n4ccc5ccc(C(N)=O)cc54)CC3)cc21 [Compound 60]
0.9
11) COc1ccc2c(c1CCN1CCC(n3ccc4ccc(C(N)=O)cc43)CC1)OCC(C)(C)C2=O [Compound 37]
0.7
12) COc1cc2c(cc1CCN1CCC(n3ccc4ccc(C(N)=O)cc43)CC1)N(C)CCC2 [Compound 53]
1.5
13) COc1ccc2c(C)noc2c1CCN1CCC(n2ccc3ccc(C(N)=O)cc32)CC1 [Compound 1]
1.6
14) CON=C1CCCc2c1ccc(OC)c2CCN1CCC(n2ccc3ccc(C(N)=O)cc32)CC1 [Compound 19]
0.6
15) CNC(=O)c1ccc2ccn(C3CCN(CCc4c(OC)ccc5nc(C)oc45)CC3)c2c1 [Compound 15]
0.8
16) COc1ccc2c(c1CCN1CCC(n3ccc4ccc(C(N)=O)cc43)CC1)CCCN2C(C)=O [Compound 54]
0.7

----------
Target Desc: 5-HT1A receptor (Sus scrofa, UniProt A0A4X1UTF5)
Construct: Swine hippocampus was homogenized in a 50 mM Tris-Hcl buffer; from tissue; host or cells: swine hippocampus, membrane fraction
Sequence (A0A4X1UTF5 1-422): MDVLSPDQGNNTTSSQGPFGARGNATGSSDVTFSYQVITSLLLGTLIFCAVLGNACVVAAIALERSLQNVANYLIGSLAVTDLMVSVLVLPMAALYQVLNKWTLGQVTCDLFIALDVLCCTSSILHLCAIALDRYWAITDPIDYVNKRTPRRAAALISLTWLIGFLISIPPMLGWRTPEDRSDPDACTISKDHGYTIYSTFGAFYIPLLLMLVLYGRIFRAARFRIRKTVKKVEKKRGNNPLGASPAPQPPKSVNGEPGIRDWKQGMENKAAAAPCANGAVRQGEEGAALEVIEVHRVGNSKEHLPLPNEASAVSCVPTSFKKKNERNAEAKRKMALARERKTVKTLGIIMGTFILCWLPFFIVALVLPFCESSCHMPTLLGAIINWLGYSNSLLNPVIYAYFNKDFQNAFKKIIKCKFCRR
Assay Info: Affinity for serotonin 1A receptor: inhibition of [3H]MPPF binding in swine hippocampal membrane fraction
Experimental Conditions: [3H]MPPF 0.5 nM, swine hippocampal membrane, receptor in high affinity (G-protein binding, MgCl2 10 mM) state, 37°C 30 min; read-out: High affinity IC50
Simple rule here: IC50 less than 300 pM is label 1, otherwise label 0.

1. COCC1(C)CC(=O)c2ccc(OC)c(CCN3CCC(n4ccc5ccc(C(N)=O)cc54)CC3)c2O1 (centres unmarked) [Compound 40]
label 1
2. COc1ccc2c(c1CCN1CCC(n3ccc4ccc(C(N)=O)cc43)CC1)OC1(CCOCC1)CC2=O [Compound 43]
label 1
3. COc1ccc2c(=O)c(C)c(C)oc2c1CCN1CCC(n2ccc3ccc(C(N)=O)cc32)CC1 [Compound 36]
label 1
4. COc1cc2c(cc1CCN1CCC(n3ccc4ccc(C(N)=O)cc43)CC1)C(O)CC2 (centres unmarked) [Compound 50]
label 1
5. COc1cc2ccccc2cc1CCN1CCC(n2ccc3ccc(C(N)=O)cc32)CC1 [Compound 45]
label 0
6. COc1ccc2c(c1CCN1CCC(n3ccc4ccc(C(N)=O)cc43)CC1)OCCO2 [Compound 32]
label 1
7. COc1ccc2oc(C)nc2c1CCN1CCC(n2ccc3ccc(C(N)=O)cc32)CC1 [Compound 7]
label 0
8. COc1ccc2c(c1CCN1CCC(n3ccc4ccc(C(N)=O)cc43)CC1)CC(C)(C)C2=O [Compound 14]
label 0

----------
Target Desc: serotonin 1A receptor (Mus musculus, UniProt Q64264)
Construct: into the rectum of CD-1 (ICR) male mice (25-45 g); from tissue; host or cells: living CD-1 (ICR) male mice (in vivo)
Sequence (Q64264 whole entry): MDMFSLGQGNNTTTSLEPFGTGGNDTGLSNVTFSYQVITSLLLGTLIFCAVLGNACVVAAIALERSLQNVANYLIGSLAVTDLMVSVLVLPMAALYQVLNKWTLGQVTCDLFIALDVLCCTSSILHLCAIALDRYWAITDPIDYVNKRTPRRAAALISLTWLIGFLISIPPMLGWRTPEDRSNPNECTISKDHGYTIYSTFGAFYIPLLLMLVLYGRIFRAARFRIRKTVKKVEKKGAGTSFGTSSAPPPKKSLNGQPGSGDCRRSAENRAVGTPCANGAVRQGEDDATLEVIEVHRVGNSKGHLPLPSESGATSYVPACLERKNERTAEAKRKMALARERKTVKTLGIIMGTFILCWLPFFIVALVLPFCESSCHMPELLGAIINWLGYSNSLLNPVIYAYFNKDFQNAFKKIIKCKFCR
Assay Info: Antagonistic effect on serotonin 1A receptor agonist (8-OH-DPAT)-induced hypothermia in mouse
Type: in vivo
Experimental Conditions: CD-1 (ICR) male mice; inhibition of hypothermia by 8-OH-DPAT 0.5 mg/kg sc; test substance 15 minutes before agonist
Recorded ED50, one value per entry.
Measurement Kind: ED50

1) COc1ccc2c(c1CCN1CCC(n3ccc4ccc(C(N)=O)cc43)CC1)OCCC2O (stereo not drawn)
0.3 mg/kg, sc
2) COc1ccc2c(c1CCN1CCC(n3ccc4ccc(C(N)=O)cc43)CC1)CCC2=O
0.1 mg/kg, sc
3) CNC(=O)c1ccc2ccn(C3CCN(CCc4c(OC)ccc5c4OC(C)(C)CC5=O)CC3)c2c1
0.03 mg/kg, sc
4) COc1cc2c(cc1CCN1CCC(n3ccc4ccc(C(N)=O)cc43)CC1)N(C(C)=O)CCC2
0.5 mg/kg, sc
5) COc1ccc2c(c1CCN1CCC(n3ccc4ccc(C(N)=O)cc43)CC1)CCCN2C(C)=O
0.84 mg/kg, sc
6) COc1cc2c(cc1CCN1CCC(n3ccc4ccc(C(N)=O)cc43)CC1)N(C)C(=O)CC2
0.1 mg/kg, sc
7) CCn1c(=O)oc2cc(OC)c(CCN3CCC(n4ccc5ccc(C(N)=O)cc54)CC3)cc21
0.52 mg/kg, sc
8) COc1cc2c(cc1CCN1CCC(n3ccc4ccc(C(N)=O)cc43)CC1)C(=O)N(C)CC2
0.12 mg/kg, sc
9) COc1cc2c(cc1CCN1CCC(n3ccc4ccc(C(N)=O)cc43)CC1)OCCO2
0.04 mg/kg, sc
10) COc1ccc2c(=O)c(C)c(C)oc2c1CCN1CCC(n2ccc3ccc(C(N)=O)cc32)CC1
0.2 mg/kg, sc
11) CNC(=O)c1ccc2ccn(C3CCN(CCc4cc5c(cc4OC)CCN(C)C5=O)CC3)c2c1
0.19 mg/kg, sc
12) COc1ccc2c(c1CCN1CCC(n3ccc4ccc(C(N)=O)cc43)CC1)OCCO2
0.04 mg/kg, sc
13) COc1ccc2c(=O)ccoc2c1CCN1CCC(n2ccc3ccc(C(N)=O)cc32)CC1
0.2 mg/kg, sc
14) COc1cc2onc(C)c2cc1CCN1CCC(n2ccc3ccc(C(N)=O)cc32)CC1
0.4 mg/kg, sc
15) COc1cc2c(cc1CCN1CCC(n3ccc4ccc(C(N)=O)cc43)CC1)C(=O)CC2
0.25 mg/kg, sc
16) COc1ccc2nc(C)oc2c1CCN1CCC(n2ccc3ccc(C(N)=O)cc32)CC1
0.18 mg/kg, sc
17) NC(=O)c1ccc2ccn(C3CCN(CCc4ccc(F)cc4)CC3)c2c1 [Compound A, reference compound]
>1 mg/kg, sc
18) COc1ccc2sc(C)nc2c1CCN1CCC(n2ccc3ccc(C(N)=O)cc32)CC1
0.42 mg/kg, sc
19) COc1cc2ccccc2cc1CCN1CCC(n2ccc3ccc(C(N)=O)cc32)CC1
0.26 mg/kg, sc
20) COc1ccc2c(c1CCN1CCC(n3ccc4ccc(C(N)=O)cc43)CC1)CCN(C)C2=O
0.37 mg/kg, sc
21) COc1cc2cccnc2cc1CCN1CCC(n2ccc3ccc(C(N)=O)cc32)CC1
0.66 mg/kg, sc
22) CCN1C(=O)CCc2cc(OC)c(CCN3CCC(n4ccc5ccc(C(N)=O)cc54)CC3)cc21
0.3 mg/kg, sc
23) CCc1nc2ccc(OC)c(CCN3CCC(n4ccc5ccc(C(N)=O)cc54)CC3)c2o1
0.24 mg/kg, sc
24) COc1cc2oc(C)nc2cc1CCN1CCC(n2ccc3ccc(C(N)=O)cc32)CC1
0.1 mg/kg, sc
25) CNC(=O)c1ccc2ccn(C3CCN(CCc4cc5c(cc4OC)CCC(=O)N5C)CC3)c2c1
0.53 mg/kg, sc
26) COc1ccc2ncccc2c1CCN1CCC(n2ccc3ccc(C(N)=O)cc32)CC1
0.62 mg/kg, sc
27) COc1ccc2oc(C)nc2c1CCN1CCC(n2ccc3ccc(C(N)=O)cc32)CC1
0.38 mg/kg, sc
28) COc1cc2c(cc1CCN1CCC(n3ccc4ccc(C(N)=O)cc43)CC1)N(C)CCC2
0.3 mg/kg, sc
29) COc1cc2nc(C)oc2cc1CCN1CCC(n2ccc3ccc(C(N)=O)cc32)CC1
0.07 mg/kg, sc
30) COc1cc2c(cc1CCN1CCC(n3ccc4ccc(C(N)=O)cc43)CC1)C(=O)N(C)CCO2
0.3 mg/kg, sc
31) COc1ccc2ccccc2c1CCN1CCC(n2ccc3ccc(C(N)=O)cc32)CC1
0.41 mg/kg, sc
32) COc1ccc2c(c1CCN1CCC(n3ccc4ccc(C(N)=O)cc43)CC1)OCCC2=O
0.21 mg/kg, sc
33) COc1cc2nc(C)sc2cc1CCN1CCC(n2ccc3ccc(C(N)=O)cc32)CC1
0.02 mg/kg, sc
